These measurements were taken from patent US20260317324A1.

biological target: BRAF D594G (Homo sapiens, UniProt P15056, D594G); construct: Horizon Discovery (HCT-116 BRAF−/− cells); host or cells: HCT-116 BRAF−/− cells, clone 63, lentiviral transduction; test: BRAF HiBiT degradation assay, C-terminal HiBiT-tagged BRAF D594G overexpressed in HCT-116 BRAF−/− cells (clone 63), Nano-Glo HiBiT Lytic assay; assay type: cell-based; conditions: BRAF D594G (Class 3), HCT-116 BRAF−/− cells; observed Dmax relative to DMSO control
Sequence (P15056 whole entry D594G): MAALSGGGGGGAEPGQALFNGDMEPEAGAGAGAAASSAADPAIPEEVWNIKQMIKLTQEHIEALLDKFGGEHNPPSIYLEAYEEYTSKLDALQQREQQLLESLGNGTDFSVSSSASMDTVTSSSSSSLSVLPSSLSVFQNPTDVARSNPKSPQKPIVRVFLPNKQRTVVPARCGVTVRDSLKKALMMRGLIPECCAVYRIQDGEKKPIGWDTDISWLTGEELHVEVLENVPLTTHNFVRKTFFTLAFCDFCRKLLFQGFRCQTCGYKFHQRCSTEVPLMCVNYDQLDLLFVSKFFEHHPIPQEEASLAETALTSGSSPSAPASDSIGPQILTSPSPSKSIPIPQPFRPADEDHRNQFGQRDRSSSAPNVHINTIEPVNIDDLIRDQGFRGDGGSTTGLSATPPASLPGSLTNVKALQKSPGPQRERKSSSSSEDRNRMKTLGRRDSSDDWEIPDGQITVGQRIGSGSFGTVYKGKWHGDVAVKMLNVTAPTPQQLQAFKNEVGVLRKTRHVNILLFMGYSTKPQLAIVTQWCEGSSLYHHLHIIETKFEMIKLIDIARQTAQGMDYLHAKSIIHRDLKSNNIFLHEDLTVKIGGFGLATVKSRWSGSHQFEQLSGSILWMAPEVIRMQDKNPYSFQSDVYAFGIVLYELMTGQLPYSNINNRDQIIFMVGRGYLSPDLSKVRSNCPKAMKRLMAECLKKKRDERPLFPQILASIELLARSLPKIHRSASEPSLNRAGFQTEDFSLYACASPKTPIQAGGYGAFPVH

# test.smiles, Dmax
measured = [
    ("CCN(C)S(=O)(=O)Nc1cc(F)cc(-c2cn(-c3ccc(N4CCN(CC5CCN(c6ccc([C@H]7CCC(=O)NC7=O)cc6)CC5)CC4)cc3)nc2-c2ccncc2)c1F", "30 to 70%"),
    ("O=C1CCN(c2ccc(N3CCC(CN4CCN(c5ccc(-n6cc(-c7cc(Cl)cc(NS(=O)(=O)N8CC(F)C8)c7F)c(-c7ccncc7)n6)cc5)CC4)CC3)nc2)C(=O)N1", "30 to 70%"),
    ("CCN(C)S(=O)(=O)Nc1cc(Cl)cc(-c2cn(-c3ccc(N4CCN(CC5CCN(c6ccc(N7CCC(=O)NC7=O)cn6)CC5)CC4)cn3)nc2-c2ccncc2)c1F", "30 to 70%"),
]

----------
Target: BRAF V600E (Homo sapiens, UniProt P15056, V600E)
Construct: endogenous C-terminal HiBiT fusion tag on BRAF V600E allele; endogenous in cells; host or cells: A375 clone 1F10 (CRISPR-Cas9 knock-in of the HiBiT tag; parental A375 from ATCC)
Sequence (P15056 whole entry V600E, the tested form may be a part): as the sequence (P15056 whole entry D594G) above, with G594D, V600E counted along it
Assay: BRAF HiBiT degradation assay, C-terminal HiBiT-tagged BRAF V600E A375 cells (clone 1F10), Nano-Glo HiBiT Lytic assay
Type: cell-based
Conditions: A375 (BRAF V600E, Class 1); DC50 at 50% degradation
Procedure: An A375 cell line expressing a homozygous V600E mutation was purchased from ATCC (Manassas, VA, USA). […] HiBiT signal was measured by a Nano-Glo HiBiT Lytic assay (Promega cat. no. N3050). […] Luminesce units (LU) were read on an EnVision plate reader 2105 (Perkin Elmer). Percent protein remaining and viability remaining per sample were calculated as follows: […]
DC50 reference

# molecule, DC50
rows = [
    ("CCCS(=O)(=O)Nc1cccc(-c2cn(-c3ccc(N4CCC(CN5CCN(c6ccc(C7CCC(=O)NC7=O)cc6)CC5)CC4)cc3)nc2-c2ccncc2)c1F (racemic)", "10 to 50 nM"),
    ("O=C1CCN(c2ccc(N3CCC(CN4CCN(c5ccc(-n6cc(-c7cc(C(F)F)cc(NS(=O)(=O)N8CCCC8)c7F)c(-c7ccncc7)n6)c(F)c5)CC4)CC3)cc2)C(=O)N1", "10 to 50 nM"),
    ("O=C1CCN(c2ccc(N3CCC(CN4CCN(c5ccc(-n6cc(-c7cc(Cl)cc(NS(=O)(=O)N8CC(F)C8)c7F)c(-c7ccncc7)n6)c(F)c5)CC4)CC3)nc2)C(=O)N1", "< 10 nM"),
    ("O=C1CCN(c2ccc(N3CCC(CN4CCN(c5ccc(-n6cc(-c7cc(Cl)cc(NS(=O)(=O)C8CCCC8)c7F)c(-c7ccncc7)n6)cc5)CC4)CC3)nc2)C(=O)N1", "< 10 nM"),
    ("O=C1CCN(c2ccc(N3CCC(CN4CCN(c5ccc(-n6cc(-c7cc(Cl)cc(NS(=O)(=O)N8CCCC8)c7F)c(-c7ccncc7)n6)cc5)CC4)CC3)cc2)C(=O)N1", "< 10 nM"),
    ("C[C@@H]1CN(c2ccc(-n3cc(-c4cc(Cl)cc(NS(=O)(=O)N5CCCC5)c4F)c(-c4ccncc4)n3)c(F)c2)C[C@@H](C)N1CC1CCN(c2ccc(C3CCC(=O)NC3=O)cn2)CC1 (mixture of isomers)", "< 10 nM"),
    ("O=C1CCN(c2ccc(N3CCC(CN4CCN(c5ccc(-n6cc(-c7cc(Cl)cc(NS(=O)(=O)N8CC[C@@H](F)C8)c7F)c(-c7ccncc7)n6)c(F)c5)CC4)CC3)nc2)C(=O)N1", "< 10 nM"),
    ("O=C1CC[C@H](c2ccc(N3CCC(CN4CCN(c5ccc(-n6cc(-c7cc(Cl)cc(NS(=O)(=O)N8CC[C@@H](F)C8)c7F)c(-c7ccncc7)n6)cc5F)CC4)CC3)cc2)C(=O)N1", "< 10 nM"),
    ("O=C1CC[C@H](c2ccc(N3CCC(CN4CCN(c5ccc(-n6cc(-c7cc(Cl)cc(NS(=O)(=O)N8CCCC8)c7F)c(-c7ccncc7)n6)cc5)CC4)CC3)cc2)C(=O)N1", "< 10 nM"),
    ("C[C@@H]1CN(c2ccc(-n3cc(-c4cc(Cl)cc(NS(=O)(=O)N5CC[C@@H](F)C5)c4F)c(-c4ccncc4)n3)cc2)CCN1CC1CCN(c2ccc(N3CCC(=O)NC3=O)cc2)CC1", "< 10 nM"),
    ("O=C1CC[C@H](c2ccc(N3CCC(CN4CCN(c5ccc(-n6cc(-c7cc(F)cc(NS(=O)(=O)N8CCCC8)c7F)c(-c7ccncc7)n6)cc5)CC4)CC3)cc2)C(=O)N1", "< 10 nM"),
    ("C[C@@H]1CN(c2ccc(-n3cc(-c4cc(Cl)cc(NS(=O)(=O)N5CCCC5)c4F)c(-c4ccncc4)n3)nc2)CCN1CC1CCN(c2ccc(C3CCC(=O)NC3=O)cn2)CC1 (mixture of isomers)", "< 10 nM"),
    ("O=C1CC[C@H](c2ccc(N3CCC(CN4CCN(c5ccc(-n6cc(-c7cc(Cl)cc(NS(=O)(=O)N8CC[C@@H](F)C8)c7F)c(-c7ccncc7)n6)nc5)CC4)CC3)nc2)C(=O)N1", "< 10 nM"),
    ("O=C1CCC(c2ccc(N3CCC(CN4CCN(c5ccc(-n6cc(-c7cc(Cl)cc(NS(=O)(=O)N8CC[C@@H](F)C8)c7F)c(-c7ccncc7)n6)cc5F)CC4)CC3)nc2)C(=O)N1 (mixture of isomers)", "< 10 nM"),
    ("O=C1CCC(c2ccc(N3CCC4(CC3)CC(CN3CCN(c5ccc(-n6cc(-c7cc(Cl)cc(NS(=O)(=O)N8CC[C@@H](F)C8)c7F)c(-c7ccncc7)n6)nc5)CC3)C4)cc2)C(=O)N1 (mixture of isomers)", "50 to 500 nM"),
    ("CCCS(=O)(=O)Nc1cccc(-c2nc(C3CCC4(CC3)CCN(CC3CCN(c5ccc(C6CCC(=O)NC6=O)cn5)CC3)CC4)sc2-c2ccnc(N)n2)c1F (racemic)", "10 to 50 nM"),
    ("CCCS(=O)(=O)Nc1cccc(-c2cn(-c3ccc(N4CCN(CC5CCN(c6ccc([C@H]7CCC(=O)NC7=O)cc6)CC5)[C@H](C)C4)cc3)nc2-c2ccncc2)c1F", "10 to 50 nM"),
    ("O=C1CCC(c2ccc(N3CCC(CN4CCN(c5ccc(-n6cc(-c7cc(Cl)cc(NS(=O)(=O)N8CC[C@@H](F)C8)c7F)c(-c7ccncc7)n6)c(F)c5)CC4)CC3)nc2)C(=O)N1 (mixture of isomers)", "< 10 nM"),
    ("O=C1CC[C@H](c2ccc(N3CCC(CN4CCN(c5ccc(-n6cc(-c7cc(Cl)cc(NS(=O)(=O)N8CCCC8)c7F)c(-c7ccncc7)n6)nc5)CC4)CC3)nc2)C(=O)N1", "< 10 nM"),
]
